Target: recombinant human FLAP protein (Homo sapiens (Human), UniProt P20292)
Sequence (P20292 whole entry): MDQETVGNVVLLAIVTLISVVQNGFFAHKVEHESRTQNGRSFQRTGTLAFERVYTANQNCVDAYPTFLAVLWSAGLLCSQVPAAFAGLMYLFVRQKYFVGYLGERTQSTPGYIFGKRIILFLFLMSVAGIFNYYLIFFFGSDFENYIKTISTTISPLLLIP
Assay: FLAP binding assay (Scintillation Proximity Assay, displacement of iodinated FLAP inhibitor)
Details: displacement of [125I]L-691,831; membranes of sf9 cells expressing recombinant human FLAP; read-out: hFLAP binding IC50
metric.name: IC50 (nM)

Examples with answers:
Look up IC50 for this compound: Cc1ncnn1-c1ncccc1-c1nc2cc(-c3cnc(N)nc3)ccc2n1C(C)(C)C
23

Look up IC50 for this compound: Cc1ncnn1-c1ccc(C#N)nc1-c1nc2cc(-c3cnc(N)nc3)ccc2n1C1(C)CCC1
86

(P) COC(=O)c1ccc(C#N)nc1-c1nc2cc(-c3cnc(N)nc3)ccc2n1C(C)(C)C
(Q) COc1cccnc1-c1nc2cc(-c3cnc(N)nc3)ccc2n1C(C)(C)C
Between these two entries, P and Q , state which has the higher IC50. Which one? Tell me its label.
Q

* * *

Test system: synthesis of LTB4 in human whole blood
Test: human whole blood LTB4 production inhibition assay
Type: cell-based
Conditions: heparinized human whole blood, calcimycin 20 μM stimulation, plasma LTB4; read-out: hWB IC50
metric.name: IC50 (nM)

API: value(readout= IC50, system= synthesis of LTB4 in human whole blood, query= CNC(=O)c1ccc(C#N)nc1-c1nc2cc(-c3cnc(N)nc3)ccc2n1C(C)(C)C [Example 10] )
422

API: value(readout= IC50, system= synthesis of LTB4 in human whole blood, query= CC(C)(C)n1c(-c2nc(C#N)ccc2-n2cncn2)nc2cc(-c3cnc(N)nc3)ccc21 [Example 1] )
30

API: value(readout= IC50, system= synthesis of LTB4 in human whole blood, query= Cc1ccc(-c2nc3cc(-c4cnc(N)nc4)ccc3n2C(C)(C)C)c(-n2cncn2)n1 [Example 28] )
194

(A) CC(C)(C)n1c(-c2cc(Br)cnc2-n2cncn2)nc2cc(-c3cnc(N)nc3)ccc21 [Example 23]
(B) COC(=O)c1ccc(C#N)nc1-c1nc2cc(-c3cnc(N)nc3)ccc2n1C(C)(C)C [Example 9]
(C) CCC(C)(C)n1c(-c2cc(Br)cnc2-n2cncn2)nc2cc(-c3cnc(N)nc3)ccc21 [Example 27]
(D) CC(C)(C)n1c(-c2cc(F)cnc2-n2cncn2)nc2cc(-c3cnc(N)nc3)ccc21 [Example 21]
Arrange the 4 entries by IC50 so the values rise. Hello, could you send the labels back in the order asked? Thank you.
A, D, B, C

* * *

Test system: synthesis of LTB4 in human whole blood
Assay: human whole blood LTB4 production inhibition assay
Format: cell-based
Settings: heparinized human whole blood, calcimycin 20 μM stimulation, plasma LTB4; read-out: hWB IC50
metric.name: IC50 (nM)

Look up IC50 for this compound: Cc1ncnn1-c1ncccc1-c1nc2cc(-c3cnc(N)nc3)ccc2n1C(C)(C)C
242

(I) Cc1ncnn1-c1ccc(C#N)nc1-c1nc2cc(-c3cnc(N)nc3)ccc2n1C(C)(C)C
(II) Cc1ncn(-c2ncccc2-c2nc3cc(-c4cnc(N)nc4)ccc3n2C(C)(C)C)n1
(III) CNC(=O)c1cccnc1-c1nc2cc(-c3cnc(N)nc3)ccc2n1C(C)(C)C
Arrange the 3 entries by IC50 so the values rise. Hello, could you send the labels back in the order asked? Thank you.
I, II, III

* * *

Molecular target: recombinant human FLAP protein (Homo sapiens (Human), UniProt P20292)
Assay: FLAP binding assay (Scintillation Proximity Assay, displacement of iodinated FLAP inhibitor)
Settings: displacement of [125I]L-691,831; membranes of sf9 cells expressing recombinant human FLAP; read-out: hFLAP binding IC50
metric.name: IC50 (µM)

Look up IC50 for this molecule: Cc1ncn(-c2ncccc2-c2nc3cc(-c4cnc(N)nc4)ccc3n2C(C)(C)C)n1
0.012

(A) CNC(=O)c1ccc(C#N)nc1-c1nc2cc(-c3cnc(N)nc3)ccc2n1C(C)(C)C
(B) CCC(C)(C)n1c(-c2cc(Br)cnc2-n2cncn2)nc2cc(-c3cnc(N)nc3)ccc21
Between these two entries, A and B , state which has the higher IC50. Which one? Tell me its label.
A
(A: 0.138 µM, B: 0.023 µM)
